tested on: MDA-MB-231; assay: NCI tumour cell line growth inhibition, 48 h
The source made the active and inactive calls. Cut-off read from the data, not from the text of the source: active = GI50 up to about 1.1 µM and inactive = higher. Where a SMILES comes first, the peptide text is derived from it. The star is where a group is joined. Boc = CC(C)(C)OC(=O)*; Bn = c1ccc(C*)cc1
MEASUREMENT_TYPE: GI50

// worked examples, GI50 included
# MOLECULE, GI50
measured = [
    ("COc1ccc(/C=C/C(=O)c2cc(C(C)(C)C)c(O)c(C(C)(C)C)c2)cc1OC", "6.4 µM (inactive)"),
    ("Nc1cccc2nsnc12", "> 100 µM (inactive)"),
    ("CCCCCc1c2nc(c(CCCCC)c3ccc([nH]3)c(CCCCC)c3nc(c(CCCCC)c4ccc1[nH]4)C=C3)C=C2", "> 100 µM (inactive)"),
    ("C1=CC2C(C3CN(c4ccccc4)N=C13)C1C3C4C=CC21C=CC43 (centres undefined)", "> 100 µM (inactive)"),
    ("Oc1ccc2ccccc2c1OCc1nnc(CCCCCCCCc2nnc(COc3c(O)ccc4ccccc34)n2Nc2ccccc2)n1Nc1ccccc1", "15.3 µM (inactive)"),
    ("COC(=O)C(CC(C)C)NC(=O)CNC(=O)C(Cc1ccc(OCc2ccccc2)cc1)NC(=O)C(COCc1ccccc1)NC(=O)OC(C)(C)C (centres undefined) (Boc-S(Bn)Y(Bn)GL-OMe; configuration not given here)", "> 100 µM (inactive)"),
    ("Cc1c2oc(=O)c(C#N)cc2c2ccccn12", "> 100 µM (inactive)"),
    ("CC1=NNC(=O)C1C1C(=O)NN=C(c2c[nH]c3ccccc23)C1Br (centres undefined)", "> 100 µM (inactive)"),
    ("CCCCCCc1nn2c(-c3ccc(C)cc3)nnc2s1", "> 100 µM (inactive)"),
    ("Nc1nc2c(ncn2C2C=CC(COS(N)(=O)=O)C2)c(=O)[nH]1 (centres undefined)", "> 100 µM (inactive)"),
]

Read the next record carefully.
Query: Given the entry "CCOP(=O)(OCC)/C(C#N)=C/c1c(C)[nH]c2ccccc12" , report its measured GI50.
Reply: > 100 µM (inactive)

Ref: ChEMBL document CHEMBL1201862
